Attribution: paper PMC10574761

This section presents compounds with their documented melting point values.

So for COc1ccc2[nH]c(-c3ccc(OCc4cn(CCNc5ccnc6cc(Cl)ccc56)nn4)c(Br)c3)nc2c1 [Compound 15c] , the logged melting point turned out to be 92 to 94 °C

So for CCCNC(=N)c1ccc2[nH]c(-c3ccc(OCc4cn(-c5ccnc6cc(Cl)ccc56)nn4)cc3)nc2c1.Cl.Cl.Cl , the logged melting point turned out to be 228 to 230 °C

So for CCCNC(=N)c1ccc2[nH]c(-c3ccc(OCc4cn(CCNc5ccnc6cc(Cl)ccc56)nn4)c(Br)c3)nc2c1.Cl.Cl.Cl [Compound 15e] , the logged melting point turned out to be 169 to 171 °C

So for Clc1ccc2c(-n3cc(COc4ccc(-c5nc6ccccc6[nH]5)cc4Br)nn3)ccnc2c1 [Compound 10a] , the logged melting point turned out to be 252 to 254 °C

* * *

This section presents compounds with their documented melting point values.

compound	melting point
Clc1ccc2[nH]c(-c3ccc(OCc4cn(CCNc5ccnc6cc(Cl)ccc56)nn4)c(Br)c3)nc2c1 [Compound 15b]	100 to 102 °C

Continue with the compound presented below.
So for Cl.Cl.Cl.N=C(N)c1ccc2[nH]c(-c3ccc(OCc4cn(CCNc5ccnc6cc(Cl)ccc56)nn4)c(Br)c3)nc2c1 [Compound 15d] , the logged melting point turned out to be 215 to 217 °C

* * *

quantity-name: melting point

compound	melting point
Clc1ccc2c(-n3cc(COc4ccc(-c5nc6ccccc6[nH]5)cc4)nn3)ccnc2c1 [Compound 9a]	143 to 145 °C
Cl.Cl.Cl.N=C(N)c1ccc2[nH]c(-c3ccc(OCc4cn(-c5ccnc6cc(Cl)ccc56)nn4)c(Br)c3)nc2c1 [Compound 10d]	200 to 202 °C
Cl.Cl.Cl.N=C(N)c1ccc2[nH]c(-c3ccc(OCc4cn(CCNc5ccnc6cc(Cl)ccc56)nn4)cc3)nc2c1 [Compound 14d]	227 to 229 °C
Clc1ccc2[nH]c(-c3ccc(OCc4cn(CCNc5ccnc6cc(Cl)ccc56)nn4)cc3)nc2c1 [Compound 14b]	213 to 215 °C

So for COc1ccc2[nH]c(-c3ccc(OCc4cn(-c5ccnc6cc(Cl)ccc56)nn4)c(Br)c3)nc2c1 [Compound 10c] , the logged melting point turned out to be 170 to 172 °C
